Species on record: Cavia porcellus
Test: Agonistic effect on untreated guinea pig ileum preparations (GPI)
Format: functional
Settings: Cavia porcellus, Ileum
Metric: IC50 (nM)
Numbers only, in nM.

get_value(item= CCOc1ccc2c(c1)C1(C)CCN(CC3CC3)C(C2=O)C1C (stereo unspecified) , readout=IC50) returns 0.72

----------
Organism: Cavia porcellus
Assay: Agonistic effect on beta-FNA treated guinea pig ileum preparations (GPI)
Type: functional
Metric: pIC50
Numbers only, as −log10 of the molar value.

Documented pIC50 of Oc1ccc2c3c1O[C@H]1[C@@H](N(CCCl)CCCl)CCC4(O)C(C2)N(CC2CC2)CCC314 (stereo partly specified) : 8.62
